Provenance of the data: patent US7582604B2

- Test system: Acinetobacter V12 21193/1 (clinical isolate)
- Format: cell-based
Where a SMILES comes first, the peptide text is derived from it. [ ]: non-standard residue; d: D form.
endpoint_name: Minimal inhibitory concentration (MIC) Acinetobacter V12 21193/1 (µg/mL)
Numbers only, in µg/mL.

Record Minimal inhibitory concentration (MIC) Acinetobacter V12 21193/1 per entry; entries follow.
1. CC(C)C[C@@H]1NC(=O)[C@H](Cc2c[nH]c3ccccc23)NC(=O)[C@H](CCCNC(=N)N)NC(=O)[C@H](CCCNC(=N)N)NC(=O)[C@H](CCCCN)NC(=O)[C@H](CCCCN)NC(=O)[C@H](CC(C)C)NC(=O)[C@H](Cc2c[nH]c3ccccc23)NC(=O)[C@H](CCCNC(=N)N)NC(=O)[C@@H]2CCCN2C(=O)[C@H]2CCCN2C(=O)[C@H](CCCNC(=N)N)NC(=O)[C@H](Cc2ccc(O)cc2)NC(=O)[C@H](Cc2ccc(O)cc2)NC1=O [compound 1] (cyclo(RWLKKRRWLYYR[dP]P))
2. CC(C)C[C@@H]1NC(=O)[C@H](Cc2c[nH]c3ccccc23)NC(=O)[C@H](CCCNC(=N)N)NC(=O)[C@@H]2CCCN2C(=O)[C@H]2CCCN2C(=O)[C@H](CCCNC(=N)N)NC(=O)[C@H](Cc2ccc(O)cc2)NC(=O)[C@H]([C@@H](C)O)NC(=O)[C@H](CCCCN)NC(=O)[C@H](Cc2c[nH]c3ccccc23)NC(=O)[C@H](CCCNC(=N)N)NC(=O)[C@H](CCCNC(=N)N)NC(=O)[C@H](CCCCN)NC(=O)[C@H](CCCCN)NC1=O [compound 3] (cyclo(RWLKKRRWKTYR[dP]P))

Reply:
1: 6.2; 2: 100

Lab note: measured Minimal inhibitory concentration (MIC) Acinetobacter V12 21193/1 of CC(C)C[C@@H]1NC(=O)[C@H](Cc2c[nH]c3ccccc23)NC(=O)[C@H](CCCNC(=N)N)NC(=O)[C@@H]2CCCN2C(=O)[C@H]2CCCN2C(=O)[C@H](CCCNC(=N)N)NC(=O)[C@H](Cc2ccc(O)cc2)NC(=O)[C@H](CCC(N)=O)NC(=O)[C@H](CCCCN)NC(=O)[C@H](Cc2c[nH]c3ccccc23)NC(=O)[C@H](CCCNC(=N)N)NC(=O)[C@H](CCCNC(=N)N)NC(=O)[C@H](CCCCN)NC(=O)[C@H](CCCCN)NC1=O [compound 4] (cyclo(RWLKKRRWKQYR[dP]P)) was 25

---

- Tested on: human red blood cells (hRBC)
- Type: cell-based
- experimental_setup: red cells of human, 1 h
Where a SMILES comes first, the peptide text is derived from it. [ ]: non-standard residue; d: D form.
endpoint_name: Hemolysis at 100 μg/ml (percentage hemolysis)
Your answer should be a number followed by the unit of measure.

Lab book: Hemolysis at 100 μg/ml (percentage hemolysis) of CC(C)C[C@@H]1NC(=O)[C@H](Cc2c[nH]c3ccccc23)NC(=O)[C@H](CCCNC(=N)N)NC(=O)[C@H](CCCNC(=N)N)NC(=O)[C@H](CCCCN)NC(=O)[C@H](CCCCN)NC(=O)[C@H](CC(C)C)NC(=O)[C@H](Cc2c[nH]c3ccccc23)NC(=O)[C@H](CCCNC(=N)N)NC(=O)[C@@H]2CCCN2C(=O)[C@H]2CCCN2C(=O)[C@H](CCCNC(=N)N)NC(=O)[C@H](Cc2ccc(O)cc2)NC(=O)[C@H](Cc2ccc(O)cc2)NC1=O [compound 1] (cyclo(RWLKKRRWLYYR[dP]P)) noted as 0.5%
